log10 of Kd by entry:
Molecular target: T1, human VEGF-A (human, UniProt P15692-4 27-191, limits assumed)
T1 construct: also called huVEGF-A
T1 sequence (P15692 other isoform, or with tags, fused parts or gaps limits assumed): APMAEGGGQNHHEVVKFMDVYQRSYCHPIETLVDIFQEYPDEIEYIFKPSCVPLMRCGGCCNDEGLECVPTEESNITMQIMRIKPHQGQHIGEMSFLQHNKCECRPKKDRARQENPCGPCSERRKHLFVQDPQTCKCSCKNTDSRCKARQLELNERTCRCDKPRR
Assay: SPR (Biacore), antibody captured by anti-human Fc, VEGF-A injected
Response schema: value (number) is log10 of Kd in units of pM.

These recorded examples may help you get a feel for the data.
hBDB-4G8.8 (antibody, V domains shown, Humanized IgG made from pHybE vectors in HEK293 cells) VH: EVQLVQSGAEVKKPGASVKVSCKASGYTFTNYGMYWVRQAPGQGLEWMGWINTETGKPTYADDFKGRVTMTTDTSTSTAYMELRSLRSDDTAVYYCARTNYYYRSYIFYFDYWGQGTMVTVSS VL: ATQLTQSPSLSASVGDRVTITCRASESVSTHMHWYQQKPGKQPKLLIYGASNLESGVPSRFSGSGSGTDFTLTISSLQPEDFATYFCQQSWNDPFTFGQGTKLEIK: 1.67
hBEW-9E10.4 (antibody, V domains shown, Humanized IgG made from pHybE vectors in HEK293 cells) VH: EIQLVQSGSELKKPGASVKVSCKASGYTFTNYGMYWVKQAPGQGLEYMGWIDTETGRPTYADDFKGRFVFSLDTSVSTAYLQISSLKAEDTAVYFCARWSGDTTGIRGPWFAYWGQGTLVTVSS VL: DIRMTQSPSSLSASVGDRVTITCLASEDIYSDLAWYQQKPGKSPKLLIYNANGLQNGVPSRFSGSGSGTDYTLTISSLQPEDVATYFCQQYNYFPGTFGQGTKLEIK: 0.32
hBEW-9A8.21 (antibody, V domains shown, Humanized IgG made from pHybE vectors in HEK293 cells) VH: EIQLVQSGAEVKKPGASVKVSCKASGYTFTNYGMYWVRQAPGQGLEWMGWINTETGKPIYADDFKGRFTFTLDTSTSTAYMELRSLRSDDTAVYYCARVDYDGSFWFAYWGQGTLVTVSS VL: ETVLTQSPATLSLSPGERATLSCRASESVSTVIHWYQQKPGQQPRLLIHGASNLESGVPARFSGSGSGTDFTLTISSLEPEDFAVYFCQQHWNDPPTFGQGTKLEIK: 0.83

The binder listed as hBDB-4G8.9 (antibody, V domains shown, Humanized IgG made from pHybE vectors in HEK293 cells) VH: EVQLVQSGAEVKKPGASVKVSCKASGYTFTNYGMYWVRQAPGQGLEWMGWINTETGKPTYADDFKGRVTMTTDTSTSTAYMELRSLRSDDTAVYYCARTNYYYRSYIFYFDYWGQGTMVTVSS VL: DTVLTQSPATLSLSPGERATLSCRASESVSTHMHWYQQKPGQAPRLLIYGASNLESGVPARFSGSGSGTDFTLTISSLEPEDFAVYFCQQSWNDPFTFGQGTKLEIK shows log10 of Kd equal to 1.79

Value of measured log10 of Kd for the entry hBDB-4G8.13 (antibody, V domains shown, Humanized IgG made from pHybE vectors in HEK293 cells) VH: EIQLVQSGTEVKKPGESLKISCKASGYTFTNYGMYWVKQMPGKGLEYMGWINTETGKPTYADDFKGRFTFSLDKSFNTAFLQWSSLKASDTAMYFCARTNYYYRSYIFYFDYWGQGTMVTVSS VL: ETVLTQSPATLSVSPGERATLSCRASESVSTHMHWYQQKPGQAPRLLIYGASNLESGVPARFSGSGSGTDFTLTISSLQSEDFAVYFCQQSWNDPFTFGQGTRLEIK : 0.88
